The reported measurements were obtained from PubChem BioAssay (NCI).

# Tested on: UO-31 renal
# experimentalDetails: NCI-60 one-dose screen, 48 h (100 = growth as untreated, 0 = no growth, -100 = all killed)
# conditions: 10 µM unless noted
This is part of a sample that, as a whole, favours compounds with a hit. Of some 83,000 tested, about 20% had one in any assay.
Each entry below carries its reported growth.
Note: unit % is implicit; provide only the numeric part.

COc1ccc(/C(=N/O)c2cc(OC)c(OC)c(OC)c2)c(OC)c1N: 49.3
C=C1C(=O)O[C@H]2[C@H]1CC/C(COC(=O)NCc1ccc(OC)cc1)=C\CC[C@@]1(C)O[C@@H]21: 18.4
C#CCC1(c2ccc(F)c(F)c2)NS(=O)(=O)c2ccccc21 (configuration not stated): 86.4
CCOC(=O)C1=C(CSC(=S)N(C2CCCCC2)C2CCCCC2)N(C)C(=O)NC1c1ccccc1 (configuration not stated): 44.5
NC(=O)c1cccc(N2Cc3ccccc3OC3=C2C(=O)c2c(O)ccc(O)c2C3=O)c1: -86.7

Prompt: Look up growth: Cc1cc(Nc2nc(-c3ccc(F)cc3)nc3ccccc23)n[nH]1
Completion: 32

Prompt: Form field: reported growth of Clc1ccc2c(c1)NC1(CCSc3ccccc31)n1nccc1-2 (configuration not stated)
Completion: 83.5

Prompt: Recorded growth for CC(Cc1nnc(SCC(=O)Nc2ccc(I)cc2)n1N)c1ccccc1 (configuration not stated) , please?
Completion: 74.1

Prompt: Field request: growth | item: COc1ccc(C(=O)/C=C/c2cccc([N+](=O)[O-])c2)c(OC)c1
Completion: -13

Prompt: Bench note: what growth did COc1ccc(Cn2cc(COc3cc(/C=C/C(=O)c4cc(OC)c(OC)c(OC)c4)ccc3OC)nn2)cc1 show?
Completion: 37.8

Prompt: I'd like to know its growth. The compound in question is CC(=O)Nc1ccc(S(=O)(=O)NC(CCC(=O)Nc2ccc(Cl)cc2)C(=O)O)cc1 (configuration not stated)
Completion: 62.1

Prompt: // returns reported growth for input CCN1C(=O)N(CC)C2C1NN=c1s/c(=C3\C(=O)N(C4CCCC4)c4ccccc43)c(=O)n12 (configuration not stated)
Completion: 37.2

* * *

# Test system: NCI-H522 lung
# experimentalDetails: NCI-60 one-dose screen, 48 h
# conditions: 10 µM unless noted
The panel holds about 83,000 compounds, 20% with a hit somewhere; the sample as a whole holds those more often. The source made the active and inactive calls. The calls were made as follows: active = growth percent below 10; inactive = the rest.
Valid outcomes are listed here; reply with one: active, inactive

CCCCCCc1nc2c(c(C)nn2-c2ccccc2)c2c1CCCCC2: inactive
COc1cc(-c2nc(-c3nc4ccccc4[nH]3)cc3c2[nH]c2ccccc23)cc(OC)c1OC: inactive
Cc1nc(Nc2cccnc2)sc1C(=O)/C=C/c1ccc(Cl)cc1: inactive
c1ccc2nc(-c3ccc4ccccc4n3)ccc2c1: inactive

Prompt: Can you look up the reported call for O=S(=O)(NCCCNc1nccc(-c2c(-c3ccccc3)nc3sccn23)n1)c1ccc(F)cc1 for me?
Completion: inactive

Prompt: // outcome(item) with item = O=C(Nc1cccc(C(F)(F)F)c1)Nc1ccc(OCc2nnc(-c3ccccc3)o2)c(F)c1
Completion: active

Prompt: Name the outcome recorded for COc1cc2c(cc1OC)C1(C)N(CC2)C(=O)OC1(C)C (configuration not stated) in the assay.
Completion: inactive

* * *

# Tested on: OVCAR-4 ovarian
# experimentalDetails: NCI-60 one-dose screen, 48 h (100 = growth as untreated, 0 = no growth, -100 = all killed)
# conditions: 10 µM unless noted
The panel holds about 83,000 compounds, 20% with a hit somewhere; the sample as a whole holds those more often.
experimentalReadout: growth (%)
# number only, unit % dropped from output

CCN(CC)CCCC(C)N=c1cc(Nc2cc(=NC(C)CCCN(CC)CC)c3cc(OC)ccc3o2)oc2ccc(OC)cc12 (stereo not drawn): -48.8

Prompt: What growth value was documented for this compound, CCCOC(=O)C1(O)CCCC1 ?
Completion: 102

Prompt: Return reported growth; argument: COc1cccc(-c2nc3sccn3c2-c2ccnc(NCCCNS(=O)(=O)c3ccc(F)cc3)n2)c1
Completion: 25.2

Prompt: For the compound shown here, CC1=NN2C(=NC3=C(CCC/C3=C\c3ccc(Cl)cc3)C2c2ccc(Cl)cc2)S1 (stereo not drawn) , give the reported growth.
Completion: 86.8

Prompt: Which growth is listed for C=CCc1cc(Cl)cc2c(OC(C)=O)c(C(C)=O)c(-c3ccccc3)nc12 ?
Completion: 100

Prompt: Param item = C=CCOc1cccc(/C=C/C(=O)c2sc(Nc3cccnc3)nc2C)c1 ; retrieve measured growth.
Completion: 69.5

Prompt: growth for O=C(/C=C/CN1CCCCC1)Nc1cc2c(Nc3ccc(F)c(Cl)c3F)ncnc2cc1OCCOC(F)F ?
Completion: 12.9

Prompt: Item under review: Nc1nn2cc(-c3ccc(Cl)s3)nc2c2ccccc12 . Reported growth?
Completion: 87.5

Prompt: // growth lookup, key: O=c1[nH]c(-c2cn(-c3ccc(Cl)cc3)nn2)nc2ccccc12
Completion: 36

Prompt: What value of growth has been reported for the following compound? ClC1=C(Cl)C(Cl)=C(Cl)C1=Cc1ccc(Cl)cc1Cl
Completion: 5.94

Prompt: Which growth reading was recorded for the compound CN(C)C1CCC(NC2=CC(=O)C=CC2=O)CC1 (stereo not drawn) ?
Completion: 111

Prompt: Endpoint output: growth of COc1cccc(/C=C/c2c(C(=O)O)cccc2[N+](=O)[O-])c1OC . Value?
Completion: 113

Prompt: Sample CC/C=C\C[C@H]1C/C=C2/C(=O)C(Cl)=C[C@@H]2C/C=C\CCCC(=O)O1 — what was its growth?
Completion: -37.8

Prompt: State the recorded growth for this entry: O=C(CCl)NCCNc1nccc(Nc2ccc(S(=O)(=O)Nc3ccccn3)cc2)n1
Completion: 29.4

Prompt: Return reported growth; argument: COc1ccc(/C=c2\sc3n(c2=O)C2C(NN=3)N(C)C(=O)N2C)cc1 (stereo not drawn)
Completion: 51.2

Prompt: For the compound COc1cc(-c2n[nH]nc2-c2ccc3c(c2)OCCO3)cc(OC)c1OC , what growth is on record?
Completion: 34.8

Prompt: Consider the compound COc1cc(C2C=C(C)N=C3SC(C)=NN32)cc(OC)c1OC (stereo not drawn) and give its measured growth.
Completion: 104

Prompt: Which growth value is on record for CCC(c1ccc(OC)cc1)C(CC)c1ccc(O)c(CN2CCCC2)c1 (stereo not drawn) ?
Completion: 31.7
